Tested on: U-937
assay-explanation: Cell proliferation inhibition (CellTiter-Glo), U-937 cells
Type: cell-based
test-conditions: Homo sapiens, 168 h; U-937 (MLL-wt), 7 d, Table 3; read-out: U-937 IC50 μM 7 d
Entries and their log10 of IC50 values follow.
All values: log10 IC50 [µM].

Here's what some known entries look like.
smiles_repr=C=CC(=O)N1CCN(CCc2ccnc(C(=O)Nc3ccc(-c4cc5c(N6CCOCC6)ncnc5[nH]4)cc3)c2)CC1 reported_value=-1.66
smiles_repr=C=CC(=O)Nc1ccc(CC(=O)Nc2ccc(-c3cc4c(C)ncnc4[nH]3)cc2)cc1 reported_value=0.10
smiles_repr=C=CC(=O)N1CC(N2CCC[C@H](NC(=O)Nc3ccc(-c4cc5c(N6CCOCC6)ncnc5[nH]4)cc3)C2)C1 reported_value=-0.34

Find the measured log10 of IC50: item C=CC(=O)Nc1ccc(CC(=O)Nc2ccc(-c3cc4c(N5CCOCC5)ncnc4[nH]3)cc2)nc1 , target or system U-937.
-0.80

Tell me reported log10 of IC50 for C=CC(=O)N(C)[C@@H]1CCCN(Cc2ccnc(C(=O)Nc3ccc(-c4cc5c(N6CCOCC6)ncnc5[nH]4)cc3)c2)C1 , tested with U-937.
-1.59

Item C=CC(=O)N1CC(N2CCC(CC(=O)Nc3ccc(-c4cc5c(N6CCOCC6)ncnc5[nH]4)cc3)CC2)C1 with U-937 - log10 of IC50?
-1.19

====

Test system: U-937
assay-explanation: Cell proliferation inhibition (CellTiter-Glo), U-937 cells
Format: cell-based
test-conditions: Homo sapiens, 96 h; U-937 (MLL-wt), 4 d, Table 3; read-out: U-937 IC50 μM 4 d
Measured IC50 values are reported for all entries that follow.

The following compounds have reported results that may help.
compound="C=CC(=O)N1CCN(CCc2ccnc(C(=O)Nc3ccc(-c4cc5c(N6CCOCC6)ncnc5[nH]4)cc3)c2)CC1 [Compound B0700-303]" reported_value="0.043 µM"
compound="C=CC(=O)N1CCCC(Nc2ccnc(C(=O)Nc3ccc(-c4cc5c(N6CCOCC6)ncnc5[nH]4)cc3)c2)C1 (stereo not drawn) [Compound B0700-302]" reported_value="0.072 µM"
compound="C=CC(=O)Nc1ccc(CC(=O)NC2CCN(c3nc4c(N5CCOCC5)ncnc4[nH]3)CC2)cc1 [Compound B0700-315]" reported_value="> 5 µM"
compound="C=CC(=O)N1CC(N2CCC[C@H](NC(=O)Nc3ccc(-c4cc5c(N6CCOCC6)ncnc5[nH]4)cc3)C2)C1 [Compound B0700-332]" reported_value="1.2 µM"
compound="C=CC(=O)N1CC(N2CCC(NC(=O)Nc3ccc(-c4cc5c(N6CCOCC6)ncnc5[nH]4)cc3)CC2)C1 [Compound B0700-330]" reported_value="1.62 µM"

Attention now turns to another entry.
Request the reported IC50 associated with O=C(/C=C/CN1CC(F)C1)Nc1ccc(CC(=O)Nc2ccc(-c3cc4c(N5CCOCC5)ncnc4[nH]3)cc2)cc1 [Compound B0700-312]
> 5 µM

====

Test system: K-562
assay-explanation: Cell proliferation inhibition (CellTiter-Glo), K-562 cells
Type: cell-based
test-conditions: Homo sapiens, K562, 168 h; K-562 (BCR-ABL), Day 7; read-out: K-562 IC50 μM (Day 7)*
Reported IC50 values are given for each entry in this list.
Output spec: scalar in µM, unitless text.

Previously resolved entries follow.
smiles_repr=C=CC(=O)N1CCC(N2CCN(C(=O)Nc3ccc(-c4cc5c(N6CCOCC6)ncnc5[nH]4)cc3)CC2)CC1 reported_value=11.2
smiles_repr=C=CC(=O)N1CCC(Nc2ccnc(C(=O)Nc3ccc(-c4cc5c(N6CCOCC6)ncnc5[nH]4)cc3)c2)CC1 reported_value=0.636
smiles_repr=C=CC(=O)N[C@@H]1CCCN(Cc2ccnc(C(=O)Nc3ccc(-c4cc5c(N6CCC(C)(O)CC6)ncnc5[nH]4)cc3)c2)C1 reported_value=9.87

Please provide the recorded IC50 for C=CC(=O)N[C@@H]1CCC[C@H](Nc2ccnc(C(=O)Nc3ccc(-c4cc5c(N6CCOCC6)ncnc5[nH]4)cc3)c2)C1 , tested on K-562.
3.47

====

System: K-562
assay-explanation: Cell proliferation inhibition (CellTiter-Glo), K-562 cells
Type: cell-based
test-conditions: Homo sapiens, K562, 96 h; K-562 (BCR-ABL), Day 4; read-out: K-562 IC50 μM (Day 4)
Recorded IC50 by entry

// known answers, use as guide
molecule="C=CC(=O)N1CCC(N2CCC(S(=O)(=O)Nc3ccc(-c4cc5c(N6CCOCC6)ncnc5[nH]4)cc3)CC2)CC1 [Compound B0700-610]" observable=IC50 reported_value="> 10 µM"
molecule="C=CC(=O)N[C@H]1CCCN(c2cccc(C(C)S(=O)(=O)Nc3ccc(-c4cc5c(N6CCOCC6)ncnc5[nH]4)cc3)c2)C1 (some centres unmarked) [Compound B0700-565]" observable=IC50 reported_value="> 10 µM"
molecule="C=CC(=O)N[C@@H]1CCCN(Cc2ccnc(C(=O)NC3CCN(c4nc5c(N6CCOCC6)ncnc5s4)CC3)c2)C1 [Compound B0700-310]" observable=IC50 reported_value="2.89 µM"

Consider the molecule C=CS(=O)(=O)N[C@H]1CCN(c2cccc(CS(=O)(=O)Nc3ccc(-c4cc5c(N6CCOCC6)ncnc5[nH]4)cc3)c2)C1 [Compound B0700-541] and give its measured IC50.
2.06 µM

Look up IC50 for this molecule: [2H]C1([2H])OC([2H])([2H])C([2H])([2H])N(c2ncnc3[nH]c(-c4ccc(NC(=O)c5cc(CN6CCC[C@@H](NC(=O)C=C)C6)ccn5)cc4)cc23)C1([2H])[2H] [Compound B0700-601]
> 10 µM

====

System: K-562
assay-explanation: Cell proliferation inhibition (CellTiter-Glo), K-562 cells
Assay type: cell-based
test-conditions: Homo sapiens, K562, 96 h; K-562 (BCR-ABL), Day 4; read-out: K-562 IC50 μM (Day 4)
observable: IC50

compound="C=CC(=O)N[C@H]1CCCN(c2cccc(CS(=O)(=O)Nc3ccc(-c4cc5c(N6CCOCC6)ncnc5[nH]4)cc3)c2)C1 [Compound B0700-540]" reported_value="> 10 µM"

# get_value(readout='IC50', item= C=CC(=O)N[C@@H]1CCCN(Cc2cccc(S(=O)(=O)NC3CCN(c4nc5c(N6CCOCC6)ncnc5s4)CC3)c2)C1 [Compound B0700-533] )
> 10 µM

Need IC50 of C=CC(=O)N[C@@H]1CCN(c2cccc(CS(=O)(=O)Nc3ccc(-c4cc5c(N6CCOCC6)ncnc5[nH]4)cc3)c2)C1 [Compound B0700-535] , thanks.
7.05 µM

Which IC50 value is on record for C=CC(=O)N[C@@H]1CCCN(Cc2ccnc(C(=O)Nc3ccc(-c4cc5c(N6CCC(O)CC6)ncnc5[nH]4)cc3)c2)C1 [Compound B0700-568] ?
> 10 µM

Name the recorded IC50 for C=CC(=O)N[C@@H]1CCCN(c2cccc(C(C)S(=O)(=O)Nc3ccc(-c4cc5c(N6CCOCC6)ncnc5[nH]4)cc3F)c2)C1 (stereo partly drawn) [Compound B0700-559] .
> 10 µM

For C=CC(=O)N[C@@H]1CCCN(Cc2ccc(C)c(C(=O)Nc3ccc(-c4cc5c(N6CCOCC6)ncnc5[nH]4)cc3)c2)C1 [Compound B0700-531] , what is its reported IC50?
0.805 µM

====

Reported IC50 by item:
System: K-562
assay-explanation: Cell proliferation inhibition (CellTiter-Glo), K-562 cells
Type: cell-based
test-conditions: Homo sapiens, K562, 96 h; K-562 (BCR-ABL), Day 4; read-out: K-562 IC50 μM (Day 4)
Source text: The present example evaluates the ability of compounds described herein, inhibitors of Menin/MLL interaction, to inhibit cell proliferation. The proliferation inhibitory effect was investigated in human MLL-leukemia cells selected on the bases of MLL fusion proteins and listed in the table below. […] Cell proliferation inhibition was monitored at both the following end points: Day 4 (T4) and Day 7 (T7). […]
Please state the figure in µM; there is no need to write the unit.

Example compounds with recorded IC50:
smiles_repr=C=CC(=O)N[C@@H]1CCCN(Cc2ccc(F)c(C(=O)Nc3ccc(-c4cc5c(N6CCOCC6)ncnc5[nH]4)cc3)c2)C1 reported_value=0.616
smiles_repr=C=CC(=O)N[C@@H]1CCCN(Cc2ccnc(C(=O)Nc3ccc(-c4cc5c(N6CCOCC6)ncnc5[nH]4)c(F)c3)c2)C1 reported_value=6.14
smiles_repr=C=CC(=O)N[C@H]1CCN(c2cccc(C(C)(C)C(=O)Nc3ccc(-c4cc5c(N6CCOCC6)ncnc5[nH]4)cc3)c2)C1 reported_value=4.55

# query: IC50 of entry C=CS(=O)(=O)N[C@@H]1CCCN(c2cccc(CS(=O)(=O)Nc3ccc(-c4cc5c(N6CCOCC6)ncnc5[nH]4)cc3)c2)C1
3.3

Which IC50 is listed for C=CC(=O)N[C@@H]1CCCN(Cc2ccnc(C(=O)NC3CCN(c4nc5c(N6CCOCC6)ncnc5o4)CC3)c2)C1 ?
5.3

Source listed as patent US20240124467A1.
